Recorded values, source ChEMBL document CHEMBL1122529.

Tested on: Rattus norvegicus
METHOD NOTES: Percentage inhibition of Carrageenan-induced rat paw edema at a concentration of 32 mg/kg
Format: functional
Please provide measured inhibition in vivo at 32 mg/kg for the entries that follow.
Numbers only, in %.

Worked examples follow.
MOLECULE: O=C(O)Cn1nnc(-c2cc(O)c(O)c(O)c2)n1
READOUT UNIT: %
inhibition in vivo at 32 mg/kg: 14
//
MOLECULE: O=C(O)CSc1nnc(-c2cc(O)c(O)c(O)c2)n1-c1ccccc1
READOUT UNIT: %
inhibition in vivo at 32 mg/kg: 18
//
MOLECULE: CCCCC1C(=O)N(c2ccccc2)N(c2ccccc2)C1=O [PHENYLBUTAZONE]
READOUT UNIT: %
inhibition in vivo at 32 mg/kg: 47

For the next question, use this molecule.
Field inhibition in vivo at 32 mg/kg (system: Rattus norvegicus) for entry `Oc1cc(-c2nn[nH]n2)cc(O)c1O` = 6
